Source listed as paper PMC3906128.

Biological target: UniProtKB P33533
Assay: TAN67-stimulated [35S]GTPγS binding in rat brain membranes
Assay type: biochemical
Conditions: read-out: Mean (± SEM) EC50 for TAN67 Stimulation, Striatum; striatal membranes, ethanol-trained rats, SoRI-9409 (5 mg/kg I.P.)/Yohimbine (2 mg/kg I.P.)
pEC50: −log10 of the molar value.
MEASUREMENT TYPE: pEC50

Looking for the measured pEC50 of Br.Br.CN1CC[C@]2(c3cccc(O)c3)Cc3nc4ccccc4cc3C[C@H]2C1 [TAN67, SB 205607 dihydrobromide] , can you help?
< 4.00

====

Target: DOP-R1 (Rattus norvegicus)
Sequence (P33533 whole entry): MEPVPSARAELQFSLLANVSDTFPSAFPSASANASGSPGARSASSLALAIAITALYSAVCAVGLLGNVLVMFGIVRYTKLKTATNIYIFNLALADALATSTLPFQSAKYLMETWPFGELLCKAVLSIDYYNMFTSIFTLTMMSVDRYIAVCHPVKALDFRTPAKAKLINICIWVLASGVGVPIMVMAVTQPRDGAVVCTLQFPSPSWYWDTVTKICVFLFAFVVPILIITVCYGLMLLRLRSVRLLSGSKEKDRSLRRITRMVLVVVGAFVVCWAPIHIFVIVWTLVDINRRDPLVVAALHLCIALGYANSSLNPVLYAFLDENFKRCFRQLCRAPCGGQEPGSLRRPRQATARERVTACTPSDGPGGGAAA
Assay: TAN67-stimulated [35S]GTPγS binding in rat brain membranes
Type: biochemical
Details: read-out: Mean (± SEM) EC50 for TAN67 Stimulation, Striatum; striatal membranes, ethanol-trained rats, SoRI-9409-vehicle/Yohimbine-vehicle
MEASUREMENT TYPE: EC50

Recorded EC50 for Br.Br.CN1CC[C@]2(c3cccc(O)c3)Cc3nc4ccccc4cc3C[C@H]2C1 [TAN67, SB 205607 dihydrobromide] , please?
> 100 µM
